The values you see were collected from the supplement of paper PMC10307832.

- Tested on: NCI-H2085
- assayText: relative viability (nuclei count vs DMSO), 5 days (fraction); higher = more cells survive
- experimentalSetup: first compound 0.4 µM
# strict inequality: relative viability < 0.6 yields T, everything else yields F

Known results for compounds:
compound	testSystem	labelClass
Cc1sc2c(c1C)C(c1ccc(Cl)cc1)=N[C@@H](CC(=O)OC(C)(C)C)c1nnc(C)n1-2 [JQ1] + CS(=O)(=O)N1CCN(Cc2cc3nc(-c4cccc5[nH]ncc45)nc(N4CCOCC4)c3s2)CC1 [Pictilisib] (partner 1 µM)	NCI-H2085	T
Cc1sc2c(c1C)C(c1ccc(Cl)cc1)=N[C@@H](CC(=O)OC(C)(C)C)c1nnc(C)n1-2 [JQ1] + CS(=O)(=O)CCNCc1ccc(-c2ccc3ncnc(Nc4ccc(OCc5cccc(F)c5)c(Cl)c4)c3c2)o1 [Lapatinib] (partner 2 µM)	NCI-H2085	F
Cc1sc2c(c1C)C(c1ccc(Cl)cc1)=N[C@@H](CC(=O)OC(C)(C)C)c1nnc(C)n1-2 [JQ1] + NC(=O)Nc1cc(-c2cccc(F)c2)sc1C(=O)N[C@H]1CCCNC1 [AZD7762] (partner 0.2 µM)	NCI-H2085	F
Cc1sc2c(c1C)C(c1ccc(Cl)cc1)=N[C@@H](CC(=O)OC(C)(C)C)c1nnc(C)n1-2 [JQ1] + CC(=O)c1c(C)c2cnc(Nc3ccc(N4CCNCC4)cn3)nc2n(C2CCCC2)c1=O [Palbociclib] (partner 0.5 µM)	NCI-H2085	T
Cc1sc2c(c1C)C(c1ccc(Cl)cc1)=N[C@@H](CC(=O)OC(C)(C)C)c1nnc(C)n1-2 [JQ1] + COc1cccc2cc(-c3nc([C@H]4CC[C@H](C(=O)O)CC4)n4ncnc(N)c34)[nH]c12 [OSI-027] (partner 0.5 µM)	NCI-H2085	T

Ask | For this compound, is relative viability lower than 0.6? Cc1sc2c(c1C)C(c1ccc(Cl)cc1)=N[C@@H](CC(=O)OC(C)(C)C)c1nnc(C)n1-2 [JQ1] + Cc1nc(Nc2ncc(C(=O)Nc3c(C)cccc3Cl)s2)cc(N2CCN(CCO)CC2)n1 [Dasatinib] (partner 0.075 µM)
Reply | T

Ask | // query: Cc1sc2c(c1C)C(c1ccc(Cl)cc1)=N[C@@H](CC(=O)OC(C)(C)C)c1nnc(C)n1-2 [JQ1] + CCNC(=O)c1noc(-c2cc(C(C)C)c(O)cc2O)c1-c1ccc(CN2CCOCC2)cc1 [Luminespib] (partner 0.01 µM)
Reply | T
